tested on: MCF-7; experiment: XTT cell proliferation inhibition, MCF-7; format: cell-based, humane; details: Homo sapiens, MCF7; MCF-7, without pyruvate in the medium; read-out: IC50 ohne Pyrovat
Endpoint name: IC50 (µM)

• CCN(CC)CCONC(=O)c1c(C)[nH]c(/C=C2\C(=O)Nc3ccc(F)cc32)c1C = 8
